Data provenance is paper PMC4347663.

Catalogue of compounds with associated Vd
- measurement protocol: IV and oral DMPK cassette dose experiment
- Assay type: in vivo, C57Bl/6 mice
- condition set: male, C57Bl/6, mouse, plasma, iv, 1 mg/kg
Field format: number, assumed L/kg, no unit text.

Here is how some compounds turned out for Vd.
{"compound": "CCOC(=O)N1CCC(CN(Cc2ccc(Cl)cc2)Cc2ccc([N+](=O)[O-])s2)C1 (centres unmarked) [Compound 3, reference compound]", "Vd, L/kg": 1.6}
{"compound": "N#Cc1ccc(CN(Cc2cccnc2)Cc2ccc(F)c(F)c2)s1", "Vd, L/kg": 1.4}
{"compound": "O=[N+]([O-])c1ccc(CN(Cc2ccc(F)cc2)Cc2cccnc2)s1", "Vd, L/kg": 1.5}
{"compound": "N#Cc1ccc(CN(Cc2ccc(Cl)cc2)Cc2cccnc2)s1", "Vd, L/kg": 1.8}

Would you kindly look at the next entry?
response.value for Cc1cc(Cl)ccc1CN(Cc1ccc(Cl)cc1)Cc1ccc([N+](=O)[O-])s1 (field: Vd) = 0.3

* * *

- target system: UniProtKB Q13133
- measurement protocol: LXRα radio ligand displacement binding
- condition set: selectivity for REV-ERBα over LXRα
parameter: LXRα Fold Sel.

For record Cc1cc(Cl)ccc1CN(Cc1ccc(Cl)cc1)Cc1ccc([N+](=O)[O-])s1 the listed LXRα Fold Sel. is 1,259 fold

// LXRα Fold Sel. lookup, compound = Clc1ccc(CN(Cc2cccnc2)Cc2nccs2)cc1 , result: <1 fold

* * *

# bioavailability annotations
- measurement protocol: IV and oral DMPK cassette dose experiment
- Assay type: in vivo, C57Bl/6 mice
- condition set: male, C57Bl/6, mouse, plasma, po, 1 mg/kg, F, 1 mg/Kg cassette, mice
Quick note: give the figure in %, leave out the unit.

{"compound": "O=[N+]([O-])c1ccc(CN(Cc2ccc(F)cc2)Cc2cccnc2)s1", "bioavailability, %": 2.4}
{"compound": "N#Cc1ccc(CN(Cc2ccc(Cl)cc2)Cc2cccnc2)s1", "bioavailability, %": 3.5}
{"compound": "CCOC(=O)N1CCC(CN(Cc2ccc(Cl)cc2)Cc2ccc([N+](=O)[O-])s2)C1 (stereo not shown) [Compound 3, reference compound]", "bioavailability, %": 2.2}

Field bioavailability (entry N#Cc1ccc(CN(Cc2cccnc2)Cc2ccc(F)c(F)c2)s1 ) reads 3

* * *

Measured LXRα Fold Sel. accompanies every entry in the list below.
- target system: LXRα (Homo sapiens, UniProt Q13133)
- Sequence (Q13133 whole entry): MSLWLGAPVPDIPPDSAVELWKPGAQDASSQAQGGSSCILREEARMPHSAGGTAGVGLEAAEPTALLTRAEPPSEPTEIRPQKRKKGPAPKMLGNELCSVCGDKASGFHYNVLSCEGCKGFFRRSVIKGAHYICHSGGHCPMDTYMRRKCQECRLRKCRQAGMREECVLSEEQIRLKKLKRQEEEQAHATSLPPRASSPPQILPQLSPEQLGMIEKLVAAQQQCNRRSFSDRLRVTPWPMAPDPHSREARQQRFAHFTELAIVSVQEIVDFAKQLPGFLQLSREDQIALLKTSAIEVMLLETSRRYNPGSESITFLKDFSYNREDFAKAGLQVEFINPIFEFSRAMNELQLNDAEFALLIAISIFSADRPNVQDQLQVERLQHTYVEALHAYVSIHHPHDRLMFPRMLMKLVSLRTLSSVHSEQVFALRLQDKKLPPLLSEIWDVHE
- measurement protocol: LXRα radio ligand displacement binding
- condition set: selectivity for REV-ERBα over LXRα

In plain terms, O=[N+]([O-])c1ccc(CN(Cc2ccc(F)cc2)Cc2cccnc2)s1 has a documented LXRα Fold Sel. of > 250 fold

Entry under test: N#Cc1ccc(CN(Cc2ccc(Cl)cc2)Cc2cccnc2)s1 . Its LXRα Fold Sel. was 100 fold

Reported LXRα Fold Sel. of N#Cc1ccc(CN(Cc2cccnc2)Cc2ccccc2F)s1 : <1 fold
